- System: TK-10 (Renal cancer)
- method notes: NCI-60 screen (SRB, 48 h)
- measurement parameters: Homo sapiens, TK-10, 48 h, read-out: TGI
endpoint name: IC (TGI) (µM)
Please reply with the bare figure in µM and do not write the unit itself.

Some compounds with known IC (TGI) results, for comparison:
C=C(C)C1CCC2(CO)CCC3(C)C(CCC4C5(C)CCCNC(C)(C)C5CCC43C)C12 (centres unmarked) :: 3.5
CC1(C)CC[C@]23CC[C@]4(C)[C@H](CC[C@@H]5[C@@]6(C)CCCNC(C)(C)[C@@H]6CC[C@]54C)[C@H]2[C@H]1OC3 :: 3.61
Cc1ccc(S(=O)(=O)OC[C@@]2(C)CC[C@]3(C)CC[C@]4(C)C(=C3C2)C=C[C@@H]2[C@@]3(C)CCCNC(C)(C)[C@@H]3CC[C@]24C)cc1 :: 3.59

Task: Quickly give me recorded IC (TGI) for "Cc1ccc(S(=O)(=O)OC[C@]23CCC(C)(C)C[C@H]2C2=CC[C@@H]4[C@@]5(C)CCCNC(C)(C)[C@@H]5CC[C@@]4(C)[C@]2(C)CC3)cc1"
Result: 3.33

Task: Quickly give me recorded IC (TGI) for "C=C(C)[C@@H]1CC[C@]2(C)[C@H](CC=C3[C@@H]4[C@@H](C)[C@H](C)CC[C@]4(CO)CC[C@]32C)[C@@]1(C)CCCN"
Result: 9.75

Task: Quickly give me recorded IC (TGI) for "CC(C)=C1CCC=C2CC[C@]3(C)[C@H](CC[C@@H]4[C@@]5(C)CCCNC(C)(C)[C@@H]5CC[C@]43C)[C@H]21"
Result: 3.37

Task: Quickly give me recorded IC (TGI) for "C=C(C)[C@@H]1CC[C@]2(C)[C@H](C=CC3=C4C[C@@](C)(CO)CC[C@]4(C)CC[C@]32C)[C@@]1(C)CCCN"
Result: 3.36

Task: Quickly give me recorded IC (TGI) for "C=C(C)[C@@H]1CC[C@]2(COS(=O)(=O)c3ccc(C)cc3)CC[C@]3(C)[C@@H](CC[C@@H]4[C@@]5(C)CCCNC(C)(C)[C@@H]5CC[C@]43C)[C@@H]12"
Result: 3.23

Task: Quickly give me recorded IC (TGI) for "C[C@H]1[C@H](C)CC[C@]2(C(=O)Nc3ccc4ncccc4c3)CC[C@]3(C)C(=CC[C@@H]4[C@@]5(C)CCCNC(C)(C)[C@@H]5CC[C@]43C)[C@H]12"
Result: 3.2

Task: Quickly give me recorded IC (TGI) for "CC1(C)CC[C@]2(CO)CC[C@]3(C)C(=CC[C@@H]4[C@@]5(C)CCCNC(C)(C)[C@@H]5CC[C@]43C)[C@@H]2C1"
Result: 16.7

Task: Quickly give me recorded IC (TGI) for "C[C@H]1[C@H](C)CC[C@]2(CO)CC[C@]3(C)C(=CC[C@@H]4[C@@]5(C)CCCNC(C)(C)[C@@H]5CC[C@]43C)[C@H]12"
Result: 3.32

---

Overview of recorded GI50 for various molecules
- System: HT29 (Colon cancer)
Please reply with the bare figure in µM and do not write the unit itself.

Task: Check HT29 (Colon cancer) data and give GI50 for "C=C(C)[C@@H]1CC[C@]2(COS(=O)(=O)c3ccc(C)cc3)CC[C@]3(C)[C@@H](CC[C@@H]4[C@@]5(C)CCCNC(C)(C)[C@@H]5CC[C@]43C)[C@@H]12" .
Result: 1.93

Task: Check HT29 (Colon cancer) data and give GI50 for "C=C(C)[C@@H]1CC[C@]2(C(=O)N[C@H](CO)Cc3ccccc3)CC[C@]3(C)[C@H](CC[C@@H]4[C@@]5(C)CCCNC(C)(C)[C@@H]5CC[C@]43C)[C@@H]12" .
Result: 0.24

Task: Check HT29 (Colon cancer) data and give GI50 for "CC(C)=C1CCC=C2CC[C@]3(C)[C@H](CC[C@@H]4[C@@]5(C)CCCNC(C)(C)[C@@H]5CC[C@]43C)[C@H]21" .
Result: 0.94

---

Overview of recorded CC50 for various molecules
- Tested on: TK-10 (Renal cancer)
- method notes: NCI-60 screen (SRB, 48 h)
- measurement parameters: Homo sapiens, TK-10, read-out: LC50
Please reply with the bare figure in µM and do not write the unit itself.

C[C@H]1[C@H](C)CC[C@]2(CO)CC[C@]3(C)C(=CC[C@@H]4[C@@]5(C)CCCNC(C)(C)[C@@H]5CC[C@]43C)[C@H]12 :: 5.97
C=C(C)[C@@H]1CC[C@]2(C)[C@H](CC=C3[C@@H]4[C@@H](C)[C@H](C)CC[C@]4(CO)CC[C@]32C)[C@@]1(C)CCCN :: 24.6
CC1(C)NCCC[C@]2(C)[C@H]3C=CC4=C5C[C@@](C)(CO)CC[C@]5(C)CC[C@@]4(C)[C@]3(C)CC[C@@H]12 :: 27.3
CC1(C)CC[C@]23CC[C@]4(C)[C@H](CC[C@@H]5[C@@]6(C)CCCNC(C)(C)[C@@H]6CC[C@]54C)[C@H]2[C@H]1OC3 :: 6.91
C=C(C)C1CCC2(CO)CCC3(C)C(CCC4C5(C)CCCNC(C)(C)C5CCC43C)C12 (stereo not drawn) :: 6.96

// below: CC50 requested for another molecule
Task: Quickly give me recorded CC50 for "C=C(C)[C@@H]1CC[C@]2(C(=O)N[C@H](CO)Cc3ccccc3)CC[C@]3(C)[C@H](CC[C@@H]4[C@@]5(C)CCCNC(C)(C)[C@@H]5CC[C@]43C)[C@@H]12"
Result: 5.89

---

- System: ACHN (Renal cancer)
- method notes: NCI-60 screen (SRB, 48 h)
- measurement parameters: Homo sapiens
endpoint name: GI50

Some compounds with known GI50 results, for comparison:
C=C(C)[C@@H]1CCC=C2CC[C@]3(C)[C@H](CC[C@@H]4[C@@]5(C)CCCNC(C)(C)[C@@H]5CC[C@]43C)[C@H]21 :: 1840 nM
Cc1ccc(S(=O)(=O)OC[C@@]2(C)CC[C@]3(C)CC[C@]4(C)C(=C3C2)C=C[C@@H]2[C@@]3(C)CCCNC(C)(C)[C@@H]3CC[C@]24C)cc1 :: 1720 nM

// below: GI50 requested for another compound
Task: Quickly give me recorded GI50 for "CC1(C)NCCC[C@]2(C)[C@H]3C=CC4=C5C[C@@](C)(CO)CC[C@]5(C)CC[C@@]4(C)[C@]3(C)CC[C@@H]12"
Result: 2930 nM

---

Overview of recorded activity at 10 µM for various molecules
- Test system: HCT-116 (Colon cancer)
- method notes: NCI-60 screen (SRB, 48 h)
- measurement parameters: Homo sapiens, HCT-116, 48 h, read-out: Growth % of the Most Sensitive Cell Lines
Value and unit, in that order.

Some molecules with known activity at 10 µM results, for comparison:
C[C@H]1[C@H](C)CC[C@]2(C(=O)Nc3ccc4ncccc4c3)CC[C@]3(C)C(=CC[C@@H]4[C@@]5(C)CCCNC(C)(C)[C@@H]5CC[C@]43C)[C@H]12 :: -100%
C=C(C)[C@@H]1CCC=C2CC[C@]3(C)[C@H](CC[C@@H]4[C@@]5(C)CCCNC(C)(C)[C@@H]5CC[C@]43C)[C@H]21 :: -96.2%

// below: activity at 10 µM requested for another molecule
Task: Check HCT-116 (Colon cancer) data and give activity at 10 µM for "Cc1ccc(S(=O)(=O)OC[C@]23CCC(C)(C)C[C@H]2C2=CC[C@@H]4[C@@]5(C)CCCNC(C)(C)[C@@H]5CC[C@@]4(C)[C@]2(C)CC3)cc1" .
Result: -83%

---

- Test system: UACC-257 (Melanoma)
- method notes: NCI-60 screen (SRB, 48 h)
- measurement parameters: Homo sapiens, UACC-257, 48 h, read-out: TGI
Overview of recorded IC (TGI) for various compounds
Please reply with the bare figure in µM and do not write the unit itself.

Task: Quickly give me recorded IC (TGI) for C=C(C)C1CCC2(CO)CCC3(C)C(CCC4C5(C)CCCNC(C)(C)C5CCC43C)C12 (stereo not drawn)
Result: 3.73

Task: Quickly give me recorded IC (TGI) for "C=C(C)[C@@H]1CC[C@]2(C)[C@H](C=CC3=C4C[C@@](C)(CO)CC[C@]4(C)CC[C@]32C)[C@@]1(C)CCCN"
Result: 3.65

Task: Quickly give me recorded IC (TGI) for "C[C@H]1[C@H](C)CC[C@]2(CO)CC[C@]3(C)C(=CC[C@@H]4[C@@]5(C)CCCNC(C)(C)[C@@H]5CC[C@]43C)[C@H]12"
Result: 3.7

Task: Quickly give me recorded IC (TGI) for "C=C(C)[C@@H]1CC[C@]2(C)[C@H](CC=C3[C@@H]4[C@@H](C)[C@H](C)CC[C@]4(CO)CC[C@]32C)[C@@]1(C)CCCN"
Result: 2.21

Task: Quickly give me recorded IC (TGI) for "C=C(C)[C@@H]1CCC=C2CC[C@]3(C)[C@H](CC[C@@H]4[C@@]5(C)CCCNC(C)(C)[C@@H]5CC[C@]43C)[C@H]21"
Result: 4.29

Task: Quickly give me recorded IC (TGI) for "C=C(C)[C@@H]1CC[C@]2(C(=O)N[C@H](CO)Cc3ccccc3)CC[C@]3(C)[C@H](CC[C@@H]4[C@@]5(C)CCCNC(C)(C)[C@@H]5CC[C@]43C)[C@@H]12"
Result: 3.34
